Target: monkey GPC3-His protein (monkey)
Assay: ELISA, monkey GPC3-His coated; antibody 0.0008 nM
Readout kind: OD450 nm
API note: the answer field is a bare number with no unit suffix.

If you can, please state the reported OD450 nm value of hAb006LH2L1 (antibody, human IgG1, V domains shown) VH: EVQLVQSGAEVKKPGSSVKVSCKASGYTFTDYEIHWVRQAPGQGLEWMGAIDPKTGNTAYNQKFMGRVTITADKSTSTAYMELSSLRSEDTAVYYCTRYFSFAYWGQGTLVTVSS VL: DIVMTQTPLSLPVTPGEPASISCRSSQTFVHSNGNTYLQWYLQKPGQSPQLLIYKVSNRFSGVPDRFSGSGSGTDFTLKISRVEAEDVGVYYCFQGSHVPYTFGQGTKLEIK . 0.129

If you can, please state the reported OD450 nm value of hAb006LH1L1 (antibody, human IgG1, V domains shown) VH: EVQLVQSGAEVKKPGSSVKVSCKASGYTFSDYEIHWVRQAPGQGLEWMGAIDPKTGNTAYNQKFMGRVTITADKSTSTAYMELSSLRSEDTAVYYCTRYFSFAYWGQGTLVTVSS VL: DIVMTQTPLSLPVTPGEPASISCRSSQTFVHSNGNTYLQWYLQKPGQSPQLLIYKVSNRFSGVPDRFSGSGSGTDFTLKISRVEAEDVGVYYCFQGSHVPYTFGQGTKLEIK . 0.121

If you can, please state the reported OD450 nm value of hAb005LH2L1b (antibody, human IgG1, V domains shown) VH: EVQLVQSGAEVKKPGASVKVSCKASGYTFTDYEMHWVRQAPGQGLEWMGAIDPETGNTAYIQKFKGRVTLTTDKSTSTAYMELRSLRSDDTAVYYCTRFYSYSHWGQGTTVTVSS VL: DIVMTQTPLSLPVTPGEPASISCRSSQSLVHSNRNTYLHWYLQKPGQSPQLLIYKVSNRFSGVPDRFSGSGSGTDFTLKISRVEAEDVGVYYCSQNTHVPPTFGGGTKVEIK . 0.09

If you can, please state the reported OD450 nm value of hAb006LH1L1a (antibody, human IgG1, V domains shown) VH: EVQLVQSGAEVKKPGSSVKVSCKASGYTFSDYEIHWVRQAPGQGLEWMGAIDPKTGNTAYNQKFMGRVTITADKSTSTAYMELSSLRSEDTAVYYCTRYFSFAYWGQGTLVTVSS VL: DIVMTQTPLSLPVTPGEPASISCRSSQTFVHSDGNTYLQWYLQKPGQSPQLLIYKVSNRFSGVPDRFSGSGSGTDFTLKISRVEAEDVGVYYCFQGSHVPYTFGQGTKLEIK . 0.05

If you can, please state the reported OD450 nm value of hAb007LH1L1b (antibody, human IgG1, V domains shown) VH: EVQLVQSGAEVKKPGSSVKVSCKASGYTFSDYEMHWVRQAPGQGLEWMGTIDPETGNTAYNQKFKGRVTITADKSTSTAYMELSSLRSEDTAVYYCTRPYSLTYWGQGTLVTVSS VL: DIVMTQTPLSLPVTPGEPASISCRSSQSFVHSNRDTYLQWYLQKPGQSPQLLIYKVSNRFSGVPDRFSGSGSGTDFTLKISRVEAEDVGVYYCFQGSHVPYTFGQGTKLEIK . 0.071
